- EXPERIMENTAL_SYSTEM: IRAK4 (Homo sapiens, UniProt Q9NWZ3)
- Construct: endogenous in cells; host or cells: Karpas299
- Sequence (Q9NWZ3 whole entry): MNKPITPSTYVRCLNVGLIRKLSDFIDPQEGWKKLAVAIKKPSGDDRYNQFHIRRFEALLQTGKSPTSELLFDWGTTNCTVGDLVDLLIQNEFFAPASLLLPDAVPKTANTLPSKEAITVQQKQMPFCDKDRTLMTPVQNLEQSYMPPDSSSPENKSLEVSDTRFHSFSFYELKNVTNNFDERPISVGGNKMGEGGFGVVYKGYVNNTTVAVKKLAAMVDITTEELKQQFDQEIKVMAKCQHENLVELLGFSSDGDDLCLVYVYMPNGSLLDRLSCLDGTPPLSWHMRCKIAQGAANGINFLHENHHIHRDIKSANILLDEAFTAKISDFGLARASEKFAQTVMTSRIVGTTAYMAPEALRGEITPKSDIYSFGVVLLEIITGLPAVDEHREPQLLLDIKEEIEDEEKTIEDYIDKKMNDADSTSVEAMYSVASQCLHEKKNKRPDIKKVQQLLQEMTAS
- TEST_DESCRIPTION: IRAK4 Degradation Assay with Human Serum (Karpas299, HTRF/TR-FRET)
- Type: cell-based
- SETTINGS: Karpas-299 in human serum, 24 hrs treatment; read-out: IRAK4 degradtion with human serum assay DC50
RECORDED_METRIC: DC50

Answered examples (10):
- MOLECULE: "CC(C)(O)c1cc2nn([C@H]3CC[C@H](N4CCN(CCNc5cc(F)c([C@H]6CCC(=O)NC6=O)c(F)c5)CC4)CC3)cc2cc1NC(=O)c1ccc2cc(C#N)cnn12 [Example 194]"
  RECORDED_METRIC: "DC50"
  OBSERVED: "6.2 nM"
- MOLECULE: "CC(C)(O)c1cc2nn([C@H]3CC[C@H](N4CCN(C(=O)C5CN(c6ccc(N7CCC(=O)NC7=O)cc6)C5)CC4)CC3)cc2cc1NC(=O)c1ccc2cc(C#N)cnn12 [Example 265]"
  RECORDED_METRIC: "DC50"
  OBSERVED: "21 nM"
- MOLECULE: "CC(=O)c1cc2nn([C@H]3CC[C@H](N4CCN(C5CN(c6cc(F)c([C@H]7CCC(=O)NC7=O)c(F)c6)C5)CC4)CC3)cc2cc1NC(=O)c1ccc2cc(C#N)cnn12 [Example 425]"
  RECORDED_METRIC: "DC50"
  OBSERVED: "19 nM"
- MOLECULE: "COC[C@@H]1CN([C@H]2CC[C@H](n3cc4cc(NC(=O)c5ccc6cc(C#N)cnn56)c(C(C)(C)O)cc4n3)CC2)CCN1C(=O)C1CN(c2cc(F)c(N3CCC(=O)NC3=O)c(F)c2)C1 [Example 410]"
  RECORDED_METRIC: "DC50"
  OBSERVED: "18 nM"
- MOLECULE: "CC(C)(O)c1cc2nn(C34CCC(N5CCN(CCc6cc(F)c([C@H]7CCC(=O)NC7=O)c(F)c6)CC5)(CC3)CC4)cc2cc1NC(=O)c1ccc2cc(C#N)cnn12 [Example 151]"
  RECORDED_METRIC: "DC50"
  OBSERVED: "3.9 nM"
- MOLECULE: "CC(C)(O)c1cc2nn([C@H]3CC[C@H](N4CCN(CCc5cc(F)c([C@H]6CCC(=O)NC6=O)c(F)c5)C[C@@H]4CC#N)CC3)cc2cc1NC(=O)c1ccc2cc(C#N)cnn12 [Example 389]"
  RECORDED_METRIC: "DC50"
  OBSERVED: "13 nM"
- MOLECULE: "Cc1nc(C2CCC(=O)NC2=O)ccc1N1CCC(N2CCN(C34CC(n5cc6cc(NC(=O)c7ccc8cc(C#N)cnn78)c(C(C)(C)O)cc6n5)(C3)C4)CC2)CC1 (centres unmarked) [Example 419]"
  RECORDED_METRIC: "DC50"
  OBSERVED: "4 nM"
- MOLECULE: "CC(C)(O)c1cc2nn([C@H]3CC[C@H](N4CCN([C@H]5C[C@@H](c6ccc(N[C@@H]7CCC(=O)NC7=O)cc6)C5)CC4)CC3)cc2cc1NC(=O)c1ccc2cc(C#N)cnn12 [Example 271]"
  RECORDED_METRIC: "DC50"
  OBSERVED: "11 nM"
- MOLECULE: "COc1cc(N2CC(C(=O)N3CCN([C@H]4CC[C@H](n5cc6cc(NC(=O)c7ccc8cc(C#N)cnn78)c(C(C)(C)O)cc6n5)CC4)CC3)C2)ccc1N1CCC(=O)NC1=O [Example 269]"
  RECORDED_METRIC: "DC50"
  OBSERVED: "11 nM"
- MOLECULE: "COC[C@H]1CN([C@H]2CC[C@H](n3cc4cc(NC(=O)c5ccc6cc(C#N)cnn56)c(C(C)(C)O)cc4n3)CC2)CCN1C(=O)[C@@H]1CCN(c2cc(F)c(N3CCC(=O)NC3=O)c(F)c2)C1 [Example 316]"
  RECORDED_METRIC: "DC50"
  OBSERVED: "35 nM"

Task: Returns the measured DC50 for the input molecule. Input: CC(C)(O)c1cc2nn([C@H]3CC[C@H](N4CCN(CC5CN(c6cc(F)c([C@H]7CCC(=O)NC7=O)c(F)c6)C5)CC4)CC3)cc2cc1NC(=O)c1ccc2cc(C#N)cnn12 [Example 290]
Output: 4.4 nM

Task: Returns the measured DC50 for the input molecule. Input: CC(C)(O)c1cc2nn([C@H]3CC[C@H](N4CCN(C(=O)CNc5cc(F)c([C@H]6CCC(=O)NC6=O)c(F)c5)CC4)CC3)cc2cc1NC(=O)c1ccc2cc(C#N)cnn12 [Example 193]
Output: 5.8 nM

Task: Returns the measured DC50 for the input molecule. Input: COC[C@@H]1CN([C@H]2CC[C@H](n3cc4cc(NC(=O)c5ccc6cc(C#N)cnn56)c(C(C)(C)O)cc4n3)CC2)CCN1CCc1cc(F)c([C@H]2CCC(=O)NC2=O)c(F)c1 [Example 320]
Output: 4.1 nM

Task: Returns the measured DC50 for the input molecule. Input: Cc1nc(C2CCC(=O)NC2=O)ccc1N1CCC(N2CCN(C34CCC(n5cc6cc(NC(=O)c7ccc8cc(C#N)cnn78)c(C(C)(C)O)cc6n5)(CC3)CC4)CC2)CC1 (centres unmarked) [Example 416]
Output: 9.2 nM

Task: Returns the measured DC50 for the input molecule. Input: COc1cc2nn([C@H]3CC[C@H](N4CCN(C(=O)C5CN(c6cc(F)c([C@H]7CCC(=O)NC7=O)c(F)c6)C5)CC4)CC3)cc2cc1C(=O)Nc1cnc2cccnn12 [Example 343]
Output: 2.3 nM

Task: Returns the measured DC50 for the input molecule. Input: COC[C@@H]1CN([C@H]2CC[C@H](n3cc4cc(NC(=O)c5ccc6cc(C#N)cnn56)c(C(C)(C)O)cc4n3)CC2)CCN1C1CCN(c2cc(F)c([C@H]3CCC(=O)NC3=O)c(F)c2)CC1 [Example 319]
Output: 6.7 nM

Task: Returns the measured DC50 for the input molecule. Input: CC(C)(O)c1cc2nn([C@H]3CC[C@H](N4CCN(CC5CN(c6cc(F)c([C@H]7CCC(=O)NC7=O)c(F)c6)C5)CC4)CC3)cc2cc1NC(=O)c1coc2cccnc12 [Example 403]
Output: 3.5 nM

Task: Returns the measured DC50 for the input molecule. Input: CC(C)(O)c1cc2nn(C3CCN([C@@H]4CCN(C5CCN(c6cc(F)c([C@H]7CCC(=O)NC7=O)c(F)c6)CC5)CC4(F)F)CC3)cc2cc1NC(=O)c1ccc2cc(C#N)cnn12 [Example 341]
Output: 15 nM

Task: Returns the measured DC50 for the input molecule. Input: CC(C)(O)c1cc2nn([C@H]3CC[C@H](N4CCN([C@H]5C[C@H](c6cc(F)c([C@H]7CCC(=O)NC7=O)c(F)c6)C5)CC4)CC3)cc2cc1NC(=O)c1ccc2cc(C#N)cnn12 [Example 364]
Output: 4.6 nM

Task: Returns the measured DC50 for the input molecule. Input: C[C@H]1CN(CCc2cc(F)c([C@H]3CCC(=O)NC3=O)c(F)c2)CCN1[C@H]1CC[C@H](n2cc3cc(NC(=O)c4ccc5cc(C#N)cnn45)c(C(C)(C)O)cc3n2)CC1 [Example 305]
Output: 5.1 nM

// provenance: patent US20250195513A1
